Would you kindly list fold change (FC) for each of these compounds?
measured.on: Retinoic acid receptor beta (Homo sapiens)
Sequence (whole entry): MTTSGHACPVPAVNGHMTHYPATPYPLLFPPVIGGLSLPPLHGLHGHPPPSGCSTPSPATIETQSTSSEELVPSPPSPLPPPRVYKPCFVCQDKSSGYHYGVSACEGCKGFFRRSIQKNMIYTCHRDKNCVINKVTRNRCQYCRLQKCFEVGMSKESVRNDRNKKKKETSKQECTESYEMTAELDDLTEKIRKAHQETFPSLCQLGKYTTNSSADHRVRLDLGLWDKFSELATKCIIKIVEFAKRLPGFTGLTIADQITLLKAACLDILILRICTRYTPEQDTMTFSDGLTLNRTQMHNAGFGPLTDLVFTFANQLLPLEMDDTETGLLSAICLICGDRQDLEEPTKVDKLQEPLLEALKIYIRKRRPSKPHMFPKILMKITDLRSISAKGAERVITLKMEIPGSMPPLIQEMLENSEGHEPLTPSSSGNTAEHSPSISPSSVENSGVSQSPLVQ
run.description: Transactivation of Gal4-fused RARbeta (unknown origin) expressed in African green monkey COS1 cells at 100 nM by luciferase reporter gene assay relative to DMSO-treated control
Type: cell-based
protocol.conditions: COS-1
Hey, just send me the number, nothing else.

Ask: Which measured fold change (FC) value corresponds to O=C(O)c1ccc(C(=O)Nc2cc3c4c(c2)CCCCC4CCCC3)cc1 ?
Reply: 13

Ask: O=C(O)c1ccc(NC(=O)c2cc3c4c(c2)CCCCC4CCCC3)cc1 ?
Reply: 27

Ask: And then O=C(O)c1ccc(NC(=O)c2cc3c4c(c2)CCCCC4CCCC3)nc1 , what is it?
Reply: 45

Ask: Param item: O=C(O)c1ccc(C(=O)Nc2cc3c4c(c2)CCCCC4CCCC3)nc1
Reply: 17

Ask: Okay, and O=C(O)c1ccc(C(=O)Nc2cc3c4c(c2)CCCC4CCC3)nc1 ?
Reply: 16

Ask: Thanks! And O=C(Nc1ccc(C(=O)O)c(O)c1)c1cc2c3c(c1)CCCC3CCC2 ?
Reply: 6

Ask: Lookup O=C(Nc1ccc(C(=O)O)c(Cl)c1)c1cc2c3c(c1)CCCC3CCC2
Reply: 6

Ask: Try O=C(O)c1ccc(NC(=O)c2cc3c4c(c2)CCCC4CCC3)nc1 next.
Reply: 40

Ask: Check CC12CCCc3cc(C(=O)Nc4ccc(C(=O)O)c(O)c4)cc(c31)CCC2 too.
Reply: 7

Ask: Item: O=C(O)c1ccc(NC(=O)c2cc3cc(c2)CCCCCCCCCC3)cc1
Reply: 13

Ask: Would you mind doing CC12CCCc3cc(C(=O)Nc4ccc(C(=O)O)cn4)cc(c31)CCC2 as well?
Reply: 40

Ask: Then what about the compound CC12CCCc3cc(NC(=O)c4ccc(C(=O)O)cc4)cc(c31)CCC2 ?
Reply: 12

---

measured.on: UniProt P13631
Sequence (P13631 whole entry, the tested form may be a part): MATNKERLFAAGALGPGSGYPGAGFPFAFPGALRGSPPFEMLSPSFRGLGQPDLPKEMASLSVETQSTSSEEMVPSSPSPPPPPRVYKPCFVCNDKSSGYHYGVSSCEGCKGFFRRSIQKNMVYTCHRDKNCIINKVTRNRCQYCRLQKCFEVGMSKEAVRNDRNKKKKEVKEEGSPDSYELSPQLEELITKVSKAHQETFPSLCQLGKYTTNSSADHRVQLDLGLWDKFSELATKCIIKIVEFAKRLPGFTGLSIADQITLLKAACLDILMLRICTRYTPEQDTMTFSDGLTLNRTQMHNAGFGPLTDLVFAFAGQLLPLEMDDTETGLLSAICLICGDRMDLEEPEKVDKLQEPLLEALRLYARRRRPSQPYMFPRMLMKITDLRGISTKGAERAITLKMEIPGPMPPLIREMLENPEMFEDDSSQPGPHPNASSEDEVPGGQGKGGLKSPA
run.description: Transactivation of Gal4-fused RARgamma (unknown origin) expressed in African green monkey COS1 cells at 100 nM by luciferase reporter gene assay relative to DMSO-treated control
Type: cell-based
protocol.conditions: COS-1
Kindly state fold change (FC) for each of the entries shown.
Lab note: jot down the number only; don't add units.

Ask: Which value of fold change (FC) has been reported for CC12CCCc3cc(NC(=O)c4ccc(C(=O)O)s4)cc(c31)CCC2 in the records?
Reply: 1

Ask: Param item: CC12CCCc3cc(NC(=O)c4ccc(C(=O)O)cn4)cc(c31)CCC2
Reply: 2

Ask: Cool, now CC12CCCc3cc(C(=O)Nc4ccc(C(=O)O)s4)cc(c31)CCC2
Reply: 1

Ask: How about CC12CCCc3cc(C(=O)Nc4ccc(C(=O)O)cn4)cc(c31)CCC2 ?
Reply: 25

Ask: Follow-up item: O=C(Nc1ccc(C(=O)O)c(O)c1)c1cc2c3c(c1)CCCC3CCC2
Reply: 2

Ask: Please give the result for O=C(O)c1ccc(NC(=O)c2cc3c4c(c2)CCCC4CCC3)cc1 too.
Reply: 3

Ask: Same for O=C(O)c1ccc(C(=O)Nc2cc3c4c(c2)CCCCC4CCCC3)nc1
Reply: 2

Ask: What would you report for COc1cc(NC(=O)c2cc3c4c(c2)CCCC4CCC3)ccc1C(=O)O ?
Reply: 1

Ask: Input O=C(O)c1ccc(C(=O)Nc2cc3c4c(c2)CCCC4CCC3)cc1
Reply: 1

Ask: Now try O=C(Nc1ccc(C(=O)O)s1)c1cc2c3c(c1)CCCC3CCC2 .
Reply: 1

Ask: Also O=C(Nc1ccc(C(=O)O)c(O)c1)c1cc2c3c(c1)CCCCC3CCCC2 , if possible.
Reply: 2

Ask: Consider next the compound CC12CCCc3cc(C(=O)Nc4ccc(C(=O)O)nc4)cc(c31)CCC2 in the same way.
Reply: 1
